Entries annotated with measured L/H (Light/Heavy ratio)
Molecular target: T1, cIAP1 (Homo sapiens, UniProt P61081+Q13490)
T1 construct: cIAP1(ΔR) (residues 1-555); GST (N, cleaved yes); made in house; host or cells: E. coli BL21 (DE3)
T1 sequence (Q13490+P61081 fused): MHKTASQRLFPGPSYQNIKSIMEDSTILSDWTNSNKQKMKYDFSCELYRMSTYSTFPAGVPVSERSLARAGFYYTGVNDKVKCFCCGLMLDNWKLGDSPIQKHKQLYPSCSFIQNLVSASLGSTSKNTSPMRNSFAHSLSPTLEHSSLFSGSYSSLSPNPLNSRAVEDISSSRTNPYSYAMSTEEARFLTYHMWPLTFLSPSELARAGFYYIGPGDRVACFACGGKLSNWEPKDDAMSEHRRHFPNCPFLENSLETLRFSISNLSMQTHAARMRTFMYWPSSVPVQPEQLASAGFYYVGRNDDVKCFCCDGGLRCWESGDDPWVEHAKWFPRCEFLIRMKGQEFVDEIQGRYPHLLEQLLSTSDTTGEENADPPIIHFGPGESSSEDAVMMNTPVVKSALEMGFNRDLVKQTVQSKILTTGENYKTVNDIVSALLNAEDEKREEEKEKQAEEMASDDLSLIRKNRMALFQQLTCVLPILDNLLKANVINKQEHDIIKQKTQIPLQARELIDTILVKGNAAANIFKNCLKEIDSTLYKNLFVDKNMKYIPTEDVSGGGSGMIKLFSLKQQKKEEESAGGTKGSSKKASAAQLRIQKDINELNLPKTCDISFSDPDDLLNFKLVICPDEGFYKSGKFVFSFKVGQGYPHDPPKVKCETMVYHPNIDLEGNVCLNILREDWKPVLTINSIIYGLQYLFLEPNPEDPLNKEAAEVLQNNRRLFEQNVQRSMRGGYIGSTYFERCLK
Assay: SILAC mass spectrometry screen for cIAP1 substrates with NEDDylator^cIAP1 in apoptotic Jurkat cell lysate
Assay type: biochemical
Conditions: Light lysate with NEDDylator^cIAP1, Heavy lysate with Ubc12
In your answer, state the number alone without any accompanying words.

[[record]]
molecule = "Rho GDP-dissociation inhibitor 2: potential cIAP1 substrate (protein, UniProt P52566 2-201, looked up) Rho GDP-dissociation …: TEKAPEPHVEEDDDDELDSKLNYKPPPQKSLKELQEMDKDDESLIKYKKTLLGDGPVVTDPKAPNVVVTRLTLVCESAPGPITMDLTGDLEALKKETIVLKEGSEYRVKIHFKVNRDIVSGLKYVQHTYRTGVKVDKATFMVGSYGPRPEEYEFLTPVEEAPKGMLARGTYHNKSFFTDDDKQDHLSWEWNLSIKKEWTE"
numericresult = 8.76

[[record]]
molecule = "Serine protease HtrA2, mitochondrial: known IAP substrate (protein, UniProt O43464 134-458, looked up) Serine protease HTRA2, …: AVPSPPPASPRSQYNFIADVVEKTAPAVVYIEILDRHPFLGREVPISNGSGFVVAADGLIVTNAHVVADRRRVRVRLLSGDTYEAVVTAVDPVADIATLRIQTKEPLPTLPLGRSADVRQGEFVVAMGSPFALQNTITSGIVSSAQRPARDLGLPQTNVEYIQTDAAIDFGNSGGPLVNLDGEVIGVNTMKVTAGISFAIPSDRLREFLHRGEKKNSSSGISGSQRRYIGVMMLTLSPSILAELQLREPSFPDVQHGVLIHKVILGSPAHRAGLRPGDVILAIGEQMVQNAEDVYEAVRTQSQLAVQIRRGRETLTLYVTPEVTE"
numericresult = 39.2

[[record]]
molecule = "3-hydroxyacyl-CoA dehydrogenase type-2: potential cIAP1 substrate (protein, UniProt Q99714 2-261, looked up) 3-hydroxyacyl-CoA …: AAACRSVKGLVAVITGGASGLGLATAERLVGQGASAVLLDLPNSGGEAQAKKLGNNCVFAPADVTSEKDVQTALALAKGKFGRVDVAVNCAGIAVASKTYNLKKGQTHTLEDFQRVLDVNLMGTFNVIRLVAGEMGQNEPDQGGQRGVIINTASVAAFEGQVGQAAYSASKGGIVGMTLPIARDLAPIGIRVMTIAPGLFGTPLLTSLPEKVCNFLASQVPFPSRLGDPAEYAHLVQAIIENPFLNGEVIRLDGAIRMQP"
numericresult = 4.1


Please look at the following molecule next.
Using the record for Malate dehydrogenase, mitochondrial: potential cIAP1 substrate (protein, UniProt P40926 25-338, looked up) Malate dehydrogenase, …: AKVAVLGASGGIGQPLSLLLKNSPLVSRLTLYDIAHTPGVAADLSHIETKAAVKGYLGPEQLPDCLKGCDVVVIPAGVPRKPGMTRDDLFNTNATIVATLTAACAQHCPEAMICVIANPVNSTIPITAEVFKKHGVYNPNKIFGVTTLDIVRANTFVAELKGLDPARVNVPVIGGHAGKTIIPLISQCTPKVDFPQDQLTALTGRIQEAGTEVVKAKAGAGSATLSMAYAGARFVFSLVDAMNGKEGVVECSFVKSQETECTYFSTPLLLGKKGIEKNLGIGKVSSFEEKMISDAIPELKASIKKGEDFVKTLK , report its L/H (Light/Heavy ratio).
4.35
